From: ChEMBL document CHEMBL1142916

Test system: PC-3
Test: Cytotoxicity against human PC3 cells after 3 days by MTT assay
Format: functional, cell-based
Settings: PC-3, 72 h
Item-by-item account of pIC50
# reply with the number alone; pIC50 is -log10 of concentration in mol/L

Illustrative cases are given below, each with its answer.
>  <smiles input>
Cc1nc2c(-c3ccc(Cl)cc3)nc3ccccc3c2c(=O)n1-c1ccc(Br)cc1

>  <pIC50>
5.60

$$$$
>  <smiles input>
Cc1nc2c(-c3ccc(Cl)cc3)nc3ccccc3c2c(=O)n1-c1cccc(Br)c1

>  <pIC50>
5.85

$$$$

Shifting focus to the compound that follows.
Enquiry: Let me know recorded pIC50 for Cc1nc2c(-c3ccc(Br)cc3)nc3ccccc3c2c(=O)n1-c1ccc(F)cc1 , thanks.
Return: 5.26

----------
Tested on: PC-3
Assay: Cytotoxicity against human PC3 cells after 3 days by MTT assay
Type: functional, cell-based
Conditions: PC-3, 72 h
Threshold 3 µM. IC50 below it: TRUE. IC50 at it or above: FALSE.

Enquiry: Record COc1ccc(-n2c(C)nc3c(-c4ccc(Br)cc4)nc4ccccc4c3c2=O)cc1 : is its IC50 strictly below 3 µM?
Return: TRUE

Enquiry: Record COc1ccccc1-n1c(C)nc2c(-c3ccc(Cl)cc3)nc3ccccc3c2c1=O : is its IC50 strictly below 3 µM?
Return: FALSE

Enquiry: Record Cc1nc2c(-c3ccc(Cl)cc3)nc3ccccc3c2c(=O)n1-c1cccc(Cl)c1 : is its IC50 strictly below 3 µM?
Return: FALSE

----------
System: PC-3
Assay: Cytotoxicity against human PC3 cells after 3 days by MTT assay
Format: functional, cell-based
Conditions: PC-3, 72 h
Item-by-item account of IC50
Please state the figure in µM; there is no need to write the unit.

>  <smiles input>
Cc1nc2c(-c3ccc(Cl)cc3)nc3ccccc3c2c(=O)n1-c1ccccc1

>  <measurement target>
PC-3

>  <endpoint result>
3.2

$$$$
>  <smiles input>
Cc1nc2c(-c3ccc(Cl)cc3)nc3ccccc3c2c(=O)n1-c1ccc(F)cc1

>  <measurement target>
PC-3

>  <endpoint result>
4

$$$$
>  <smiles input>
COc1ccccc1-n1c(C)nc2c(-c3ccc(Br)cc3)nc3ccccc3c2c1=O

>  <measurement target>
PC-3

>  <endpoint result>
6.7

$$$$
>  <smiles input>
Cc1nc2c(-c3ccc(Br)cc3)nc3ccccc3c2c(=O)n1-c1ccccc1

>  <measurement target>
PC-3

>  <endpoint result>
2.2

$$$$

Enquiry: Let me know recorded IC50 for Cc1nc2c(-c3ccc(Cl)cc3)nc3ccccc3c2c(=O)n1-c1ccccc1Cl , thanks.
Return: 2

----------
Tested on: PC-3
Test: Cytotoxicity against human PC3 cells after 3 days by MTT assay
Format: functional, cell-based
Settings: PC-3, 72 h
Item-by-item account of IC50
Please state the figure in nM; there is no need to write the unit.

Illustrative cases are given below, each with its answer.
>  <smiles input>
Cc1nc2c(-c3ccc(Br)cc3)nc3ccccc3c2c(=O)n1-c1ccc(Cl)cc1

>  <IC50 (nM)>
1900

$$$$
>  <smiles input>
Cc1nc2c(-c3ccc(Br)cc3)nc3ccccc3c2c(=O)n1-c1ccc(Br)cc1

>  <IC50 (nM)>
3300

$$$$
>  <smiles input>
COc1cc2c(c(OC)c1OC)-c1ccc(OC)c(=O)cc1[C@@H](NC(C)=O)CC2

>  <IC50 (nM)>
18

$$$$

Shifting focus to the molecule that follows.
Enquiry: // output IC50; input COc1ccc(-n2c(C)nc3c(-c4ccc(Cl)cc4)nc4ccccc4c3c2=O)cc1 ; system PC-3
Return: 1600

----------
Item-by-item account of IC50
System: PC-3
Experiment: Cytotoxicity against human PC3 cells after 3 days by MTT assay
Type: functional, cell-based
Settings: PC-3, 72 h

>  <smiles input>
Cc1ccccc1-n1c(C)nc2c(-c3ccc(Br)cc3)nc3ccccc3c2c1=O

>  <IC50>
> 30 µM

$$$$

Enquiry: // output IC50; input Cc1nc2c(-c3ccc(Br)cc3)nc3ccccc3c2c(=O)n1-c1ccccc1Br ; system PC-3
Return: > 20 µM

----------
Test system: PC-3
Experiment: Cytotoxicity against human PC3 cells after 3 days by MTT assay
Type: functional, cell-based
Conditions: PC-3, 72 h
Item-by-item account of IC50

Illustrative cases are given below, each with its answer.
>  <smiles input>
Cc1nc2c(-c3ccc(Br)cc3)nc3ccccc3c2c(=O)n1-c1cccc(Br)c1

>  <endpoint result>
> 10 µM

$$$$
>  <smiles input>
Cc1ccccc1-n1c(C)nc2c(-c3ccc(Cl)cc3)nc3ccccc3c2c1=O

>  <endpoint result>
> 38 µM

$$$$
>  <smiles input>
Cc1nc2c(-c3ccc(Br)cc3)nc3ccccc3c2c(=O)n1-c1ccccc1Cl

>  <endpoint result>
> 28 µM

$$$$

Enquiry: Let me know recorded IC50 for Cc1ccc(-n2c(C)nc3c(-c4ccc(Br)cc4)nc4ccccc4c3c2=O)cc1 , thanks.
Return: > 21.3 µM
